biological target: T1, recombinant human IL-1β (human, UniProt P01584 117-269); assay: indirect ELISA: mAb captured on goat anti-human IgG, biotinylated IL-1β titrated
T1 construct: It was biotinylated in the ELISA and in the yeast display experiments; also called Hu IL-1beta; huIL-1b
readout type: pEC50
The read-out pEC50 is expressed as -log10 of concentration in moles per litre.

Q: // query pEC50 value for entry h1B12-AM1, affinity-matured h1B12.1 IgG1/k mut (234,235) mAb (scFv clone 13) (antibody, V domains shown, also called PR-1354589) VH: EVQLQESGPGLVKPSETLSLTCTVSGFSLSDYGVSWIRQPPGKGLEWIGLIWGSGDTYYNSPLKSRLTISKDNSKSQVSLKLSSVTAADTAVYYCAKQTNIWAYDLYSMDYWGQGTLVTVSS VL: DIQMTQSPSSLSASVGDRVTITCQTSTDIDDDLNWYQQKPGKAPKLLISLASTLRPGVPSRFSGSGSGTDFTFTISSLQPEDFATYYCLQSDRLPLTFGQGTKLEIKR
Result: 10.51

Q: // query pEC50 value for entry h1B12-AM2, affinity-matured h1B12.1 IgG1/k mut (234,235) mAb (scFv clone 21) (antibody, V domains shown, also called PR-1354591) VH: EVQLQESGPGLVKPSETLSLTCTVSGFSLSEFGVSWIRQPPGKGLEWIGLIWGGGDTYYNSPLKSRLTISKDNSKSQVSLKLSSVTAADTAVYYCAKQRNLWAYDLYGMDYWGQGTLVTVSS VL: DIQMTQSPSSLSASVGDRVTITCQTSQDIDMDLNWYQQKPGKAPKLLISQGSTLWPGVPSRFSGSGSGTDFTFTISSLQPEDFATYYCLQTDSFPLTFGQGTKLEIKR
Result: 10.59

Q: // query pEC50 value for entry h1B12-AM4, affinity-matured h1B12.1 IgG1/k mut (234,235) mAb (scFv clone A1) (antibody, V domains shown, also called PR-1354594) VH: EVQLQESGPGLVKPSETLSLTCTVSGFSLRDYGVSWIRQPPGKGLEWLGLIWGSGDTYYNSPLKSRLTISKDTSKSQVSLKLSSVTAADTAVYYCAKQTNIWGYDLYGMDYWGQGTLVTVSS VL: DIQMTQSPSSLSASVGDRVTITCQASQDIDMDLNWYQQKPGKAPKLLISQANTLPPGVPSRFSGSGSGTDFTFTISSLQPEDFATYYCLQSDWLPLTFGQGTKLEIKR
Result: 10.51

Next up:
Q: // query pEC50 value for entry h1B12-AM3, affinity-matured h1B12.1 IgG1/k mut (234,235) mAb (scFv clone 34) (antibody, V domains shown, also called PR-1354592) VH: EVQLQESGPGLVKPSETLSLTCTVSGFSLSDYGVSWIRQPPGKGLEWIGLIWGSGDTYYNSPLKSRLTISKDTSKSQVSLKLSSVTAADTAVYYCAKQTNLWAYDLYSMDYWGQGTLVTVSS VL: DIQMTQSPSSLSASVGDRVTITCQASQDIDDDLNWYQQKPGKAPKLLISLASILRPGVPSRFSGSGSGTDFTFTISSLQPEDFATYYCLQSDSFPLTFGQGTKLEIKR
Result: 10.48
